- Protocol Description: Conversion of prodrugs to compound 1 in human plasma
- Type: in vitro ADME
- Details: human plasma (Na-Heparin treated), 37° C., 0.5 hr
Readout Type: Prodrug loss at 0.5 hr (%)

Known Prodrug loss at 0.5 hr results, listed for orientation:
COCCOCCOCC(=O)NCCCC[C@H](NC(=O)COCCOCCOC)C(=O)N(C)CCCC(=O)ONC(=O)Cc1ccc(CCCCc2ccccc2)cc1 [Compound 64]; 78.7
COCCOCCOCC(=O)NCCCC[C@H](NC(=O)COCCOCCOC)C(=O)NCCC(=O)ONC(=O)Cc1ccc(CCCCc2ccccc2)cc1 [Compound 63]; 99.3
COCCOCC(=O)NCCCC[C@H](NC(=O)COCCOC)C(=O)NCCCC(=O)ONC(=O)Cc1ccc(CCCCc2ccccc2)cc1 [Compound 100]; 69.4

1 = COCCOCC(=O)NCCCC[C@H](NC(=O)COCCOC)C(=O)NCCC(=O)ONC(=O)Cc1ccc(CCCCc2ccccc2)cc1 [Compound 68]
2 = COCCOCCOCCOCCOCCOCC(=O)N1CCC(CCC(=O)ONC(=O)Cc2ccc(CCCCc3ccccc3)cc2)CC1 [Compound 111]
Given 1 and 2 , report the one with the higher recorded Prodrug loss at 0.5 hr. Returns: label corresponding to the selected item.
1
(1: 98.6%, 2: 65.5%)

---

Reported pH at 1.00 mg/mL of MGCD290 in saline values for the following compounds.
- Protocol Description: Saline solubility at 1.00 mg/mL and 0.50 mg/mL (with pH by indicator paper)
- Assay type: physicochemical
- Details: final concentration of hydroxamate 1 1.00 mg/mL, pH indicator paper

Known pH at 1.00 mg/mL of MGCD290 in saline results, listed for orientation:
COCCOCCOCCOCCOCCOCC(=O)NCC[C@H](NC(=O)COCCOCCOCCOCCOCCOC)C(=O)NCCC(=O)ONC(=O)Cc1ccc(CCCCc2ccccc2)cc1; 4.5-5
COCCOCCOCCOCCOCC(=O)NCCCC[C@H](NC(=O)COCCOCCOCCOCCOC)C(=O)NCCCC(=O)ONC(=O)Cc1ccc(CCCCc2ccccc2)cc1; 4.5-5

From here, focus on the item given below.
Lab note: COCCOCC(=O)NCCCC[C@H](NC(=O)COCCOC)C(=O)NCCC(=O)ONC(=O)Cc1ccc(CCCCc2ccccc2)cc1 gave pH at 1.00 mg/mL of MGCD290 in saline of 4.5-5

---

- Protocol Description: Conversion of prodrugs to compound 1 in human plasma
- Assay type: in vitro ADME
- Details: human plasma (Na-Heparin treated), 37° C., 1 hr
Readout Type: Prodrug loss at 1 hr (%)

COCCOCC(=O)NCCCC[C@H](NC(=O)COCCOC)C(=O)NCCCC(=O)ONC(=O)Cc1ccc(CCCCc2ccccc2)cc1 [Compound 100]; 93.4
COCCOCCOCC(=O)NCCCC[C@H](NC(=O)COCCOCCOC)C(=O)N(C)CCCC(=O)ONC(=O)Cc1ccc(CCCCc2ccccc2)cc1 [Compound 64]; 100.0
COCCOCCOCCOCCOCCOCC(=O)N1CCC(CCC(=O)ONC(=O)Cc2ccc(CCCCc3ccccc3)cc2)CC1 [Compound 111]; 90.5
Cl.O=C(Cc1ccc(CCCCc2ccccc2)cc1)NOC(=O)CCC1CCNCC1 [Compound 110]; 99.6
NCC1(C(=O)ONC(=O)Cc2ccc(CCCCc3ccccc3)cc2)CC1 [Compound 54]; 71.6
COCCOCC(=O)NCCCC[C@H](NC(=O)COCCOC)C(=O)NCCC(=O)ONC(=O)Cc1ccc(CCCCc2ccccc2)cc1 [Compound 68]; 99.4
COCCOCCOCCOCCOCCOCC(=O)N1CCC(CCCC(=O)ONC(=O)Cc2ccc(CCCCc3ccccc3)cc2)CC1 [Compound 122]; 91.9
